Recorded CRF2R EC50 for the following binders
Molecular target: T1, CRF2R
T1 sequence (Q13324 whole entry, species assumed, looked up): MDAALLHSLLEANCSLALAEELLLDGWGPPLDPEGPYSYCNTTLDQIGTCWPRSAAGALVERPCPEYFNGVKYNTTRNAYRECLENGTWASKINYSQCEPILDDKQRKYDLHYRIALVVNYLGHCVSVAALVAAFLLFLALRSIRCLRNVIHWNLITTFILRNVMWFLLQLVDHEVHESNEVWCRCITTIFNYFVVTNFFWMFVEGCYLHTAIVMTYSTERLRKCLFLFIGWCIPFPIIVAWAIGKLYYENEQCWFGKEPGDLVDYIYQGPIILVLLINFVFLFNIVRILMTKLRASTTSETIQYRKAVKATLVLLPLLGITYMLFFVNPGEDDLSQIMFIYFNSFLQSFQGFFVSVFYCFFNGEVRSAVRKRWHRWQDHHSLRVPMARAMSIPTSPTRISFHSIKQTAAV
Experiment: cell-based or functional assay
Ends that are not written are not given here.
Measurement name: CRF2R EC50 (nM)

Binder: DNPSLSIDLPLLLLRTLLELEKTQSQRERAEQNARIFDRV-NH2 [SEQ ID NO 338]
Measurement name: CRF2R EC50
Unit tag: nM
Number: 19.3
//
Binder: ZGPPISIDLPYQLLRKVIEIEKQEKEKQQAANNARLLARI (C-terminal amide) [SEQ ID NO 286]
Measurement name: CRF2R EC50
Unit tag: nM
Number: 13.5
//
Binder: ZGPPISIDLPYYLLRKMIEIEKQEKEKQQAANNALLLATI (C-terminal amide) [SEQ ID NO 225]
Measurement name: CRF2R EC50
Unit tag: nM
Number: 4.8
//
Binder: DNPSLSIDLPLLLLRTLLELEKTQSQRERAEQNAEIFAEV-NH2 [SEQ ID NO 323]
Measurement name: CRF2R EC50
Unit tag: nM
Number: 19.6
//
Binder: ZGPPISIDLPLHLLRKMIEIEKQEKEKQQAANNALLLDTI (C-terminal amide) [SEQ ID NO 240]
Measurement name: CRF2R EC50
Unit tag: nM
Number: 22
//
Binder: IVLSLDVPIGLLQILLEQARARAAREQATTNARILARVM-NH2 [SEQ ID NO 368]
Measurement name: CRF2R EC50
Unit tag: nM
Number: 50.4
//
Binder: DNPSLSIDLPLILLRTLLELEKTQSQRERAEQNARIFARV-NH2 [SEQ ID NO 335]
Measurement name: CRF2R EC50
Unit tag: nM
Number: 28.1

Data provenance: patent US20030148958A1
